The entries below are paired with their reported pIC50.
tested on: MGC-803 cells; assay: MTT cell growth inhibition assay, MGC-803; type: cell-based, human; conditions: Homo sapiens, MGC-803, 48 h, MTT, 48 h incubation, MGC-803
pIC50: −log10 of the molar value.

Some compounds with known pIC50 results, for comparison:
# Compound, pIC50
measured = [
    ("COc1cc(/C(C#N)=C/c2ccc(Oc3ccccc3)cc2)cc(OC)c1OC", "< 4.00"),
    ("Cc1ccc(/C(C#N)=C/c2ccccc2)cc1 [Compound 13d, (Z)-3-Phenyl-2-(p-tolyl)acrylonitrile]", 4.05),
    ("Cc1ccc(/C(C#N)=C/c2ccccn2)cc1 [Compound 14b]", "< 4.00"),
]

Proceed to the following item.
## Task Name the recorded pIC50 for COc1cc(/C(C#N)=C/c2ccc([N+](=O)[O-])cc2)cc(OC)c1OC .
## Result < 4.00

====

test system: AGS cells; test: MTT cell growth inhibition assay, AGS; type: cell-based, human; conditions: MTT, 48 h incubation, AGS
Result Type: pIC50
Hey, just a heads up that pIC50 is the negative log base 10 of the concentration in molar.

## Task Name the recorded pIC50 for COc1ccc(/C=C\c2cc(OC)c(OC)c(OC)c2)cc1OP(=O)(O)O [CA-4P, reference compound] .
## Result 5.33

====

Tested on: MGC-803 cells
Assay: MTT cell growth inhibition assay, MGC-803
Format: cell-based, human
Conditions: MTT, 48 h incubation, MGC-803
Description: All human cell lines were used in this study. […] Cells were plated in 96-well plates at a density of 30–40% to ensure exponential growth throughout the experimental period, and then allowed to adhere for 1 day[21]. […] The plates were shaken vigorously at RT to ensure complete solubilisation, and absorption at 492 nm was determined. […]
pIC50: −log10 of the molar value.
Result Type: pIC50

[1] COc1ccc(/C=C\c2cc(OC)c(OC)c(OC)c2)cc1OP(=O)(O)O [CA-4P, reference compound]
[2] CC(=O)O[C@H]1C(=O)[C@@]2(C)[C@H]([C@H](OC(=O)c3ccccc3)[C@]3(O)C[C@H](OC(=O)[C@H](O)[C@@H](NC(=O)c4ccccc4)c4ccccc4)C(C)=C1C3(C)C)[C@]1(OC(C)=O)CO[C@@H]1C[C@@H]2O [Taxol, reference compound]
## Task Which value of pIC50 is smaller, the one for 1 or the one for 2 ? // respond with label for picked entry
## Result 2

====

The entries below are paired with their reported melting point.

Some compounds with known melting point results, for comparison:
# Compound, melting point
records = [
    ("Cc1ccc(/C(C#N)=C/c2cccs2)cc1 [Compound 14a]", "128 to 130 °C"),
    ("Cc1ccc(/C(C#N)=C/c2ccccn2)cc1 [Compound 14b]", "102 to 104 °C"),
    ("COc1cc(/C(C#N)=C/c2ccc([N+](=O)[O-])cc2)cc(OC)c1OC", "174 to 176 °C"),
    ("COc1cc(/C(C#N)=C/c2ccc(Oc3ccccc3)cc2)cc(OC)c1OC", "92 to 94 °C"),
    ("COc1cc(/C=C(\\C#N)c2ccc(C)cc2)cc(OC)c1OC [Compound 13c]", "135 to 137 °C"),
]

Proceed to the following item.
## Task Name the recorded melting point for COc1ccc(/C=C(\C#N)c2cc(OC)c(OC)c(OC)c2)cc1 .
## Result 156 to 158 °C
